- Test system: breast cancer cell line MCF-7
- TEST NAME: MTT assay, tumour cell growth inhibition, breast MCF-7
- Format: cell-based, human
- CONDITION CONTEXT: Homo sapiens, MCF7; Breast MCF-7, MTT, 96 h; read-out: IC50, dose required for 50% inhibition of tumour cell growth
MEASUREMENT NAME: IC50 (nM)
The reply should contain only the number, in nM.

Value of measured IC50 for the entry COc1cc(OC)cc(C(=O)/C=C/c2ccc(OC)c(O)c2)c1 [Compound III] : 0.65

Noted for COc1cc(OC)cc(C(=O)/C=C/c2ccc(OC)cc2OC)c1 [Compound IV] : its IC50 reads 0.1

For COc1ccc(/C=C/C(=O)c2cc(OC)cc(OC)c2)cc1 [Compound II] the compound record lists IC50 as 690

---

Hi there, I'd appreciate the recorded IC50 for every entry that follows.
- System: colon cancer cell line HCT-116
- TEST NAME: MTT assay, tumour cell growth inhibition, colon HCT-116
- Type: cell-based, human
- CONDITION CONTEXT: Homo sapiens; Colon HCT-116, MTT, 96 h; read-out: IC50, dose required for 50% inhibition of tumour cell growth
Just the number please, in nM, no unit attached.

Note to self: IC50 of COc1ccc(/C=C/C(=O)c2cc(OC)cc(OC)c2)cc1 [Compound II] with colon cancer cell line HCT-116 was 1200

Measured IC50 for this entry COc1cc(OC)cc(C(=O)/C=C/c2ccc(OC)c(O)c2)c1 [Compound III] on colon cancer cell line HCT-116: 0.08
